experiment: NCI Yeast Anticancer Drug Screen. Data for the mlh1 rad18 strain (AID 175); details: S. cerevisiae mlh1 rad18 strain growth inhibition; at 50.0 µM; hits give high values
About 79,000 compounds went through this panel and 15% of them were active in at least one assay; those are over-represented in the sample as a whole.
value_type: growth inhibition (%)

INSERT INTO assay_data (molecule, numeric_readout) VALUES
  ('CC(=O)[CH-]C(=O)c1ccccc1.CC(=O)[CH-]C(=O)c1ccccc1.O=S(=O)([O-])c1cc([O-])c2c([O-])cc(S(=O)(=O)[O-])cc2c1.[Na+].[Zr+4]', 10.8),
  ('CS(=O)(=O)c1ccc(NN)c([N+](=O)[O-])c1 (tested in a mixture with another compound)', -39.1),
  ('Clc1nc(Oc2ccccc2)nc(-c2cn(-c3ccccc3)c3ccccc23)n1', -6.35),
  ('COc1ccc(C2c3cc4c(c(OC)c3CC3OCC(=O)C32)OCO4)cc1OC (configuration not stated)', -4.3),
  ('OCc1ccccc1OC1OC(CO)C(O)C(O)C1O (configuration not stated)', -50.9),
  ('CCCCCCCCCCCC(=O)CCCCC', -29.4),
  ('C/C=C1\NC(=O)[C@H]2CSSCCC=C[C@H](CC(=O)N[C@H](C(C)C)C(=O)N2)OC(=O)[C@H](C(C)C)NC1=O', 33.5),
  ('CCN(CC)C(=O)c1cccnc1', 18.6),
  ('NS(=O)(=O)c1ccc(NC(=O)/C=C/C(=O)O)cc1', -4),
  ('COc1ccc(OC)c(N(CN2C(=O)CCC2C(=O)O)C(C)=O)c1 (configuration not stated)', -23.3),
  ('Cc1ccc(-c2noc(C)n2)cc1', 9.2),
  ('CC/C(Cl)=N\OC(=O)Nc1ccc(OC)cc1', -68.8),
  ('CCCCN1CCNCC1', -2.55),
  ('COC(=O)C(=O)C(C(=O)C(=O)Nc1ccc(Cl)c(Cl)c1)c1nc2ccc(C(=O)c3ccccc3)cc2[nH]c1=O (configuration not stated)', 4.95),
  ('COc1ccc(-c2cc(=O)c3c(ccc4ccccc43)o2)cc1', 7),
  ('O=C(/C=N/O)Nc1cc(Cl)ccc1Cl', 17.3),
  ('N#[N+]c1c(O)cc(S(=O)(=O)O)c2ccccc12', -10.4),
  ('CC1(C)S[C@H](CN)N[C@H]1C(=O)OC(c1ccccc1)c1ccccc1', -31.9),
  ('C[C@]12CC[C@@H]3c4ccc(OS(N)(=O)=O)cc4CC[C@H]3[C@@H]1CCC2=O', 15.8),
  ('CCCCCCC(=O)CCCCCCCCCCCCC(=O)OC', 12.7),
  ('CCOc1ccc(NC(=S)NC2CCCCCCCCCCC2)cc1', 32.9),
  ('COC(=O)C(C(=O)C(=O)Nc1c(C)cccc1C(C)(C)C)c1nc2ccc(Cl)cc2[nH]c1=O (configuration not stated)', 12.7);
